Experiment: Toxicity liver stage against HepG2, at 10uM
Assay type: cell-based
Parameters: test concentration 10 uM, cell line HepG2-A16-CD81EGFP
Conditions: human, HepG2-A16-CD81EGFP cells; read-out: INHIBITION
Give measured cytotoxicity at 10 µM for each item. Keep answers brief.
Numbers only, in %.

Example entries begin here.
{"compound": "N#Cc1cccc(C(=O)NC2CCc3c(ccc(=O)n3CC3CC3)C2)c1 (stereo unspecified)", "measurement.unit": "%", "meas.value": 0.908}
{"compound": "Cc1nc(CNCC2CN(C3CC3)CCO2)cs1 (stereo unspecified)", "measurement.unit": "%", "meas.value": -10.1}
{"compound": "O=C1CC[C@H]2CN(Cc3ncc[nH]3)CC[C@H]2N1CC1CCNCC1", "measurement.unit": "%", "meas.value": 11.6}
{"compound": "CCC(C)(O)CNc1ccc(S(=O)(=O)C(F)F)cc1 (stereo unspecified)", "measurement.unit": "%", "meas.value": 12.2}
{"compound": "CCN(C)c1ncnc2c1CCN(C(=O)c1cnccn1)CC2", "measurement.unit": "%", "meas.value": -1.86}

Now for the compound whose cytotoxicity at 10 µM we want.
Q. Record request: cytotoxicity at 10 µM value, item Cc1ccc(C(=O)N(CC2CCCO2)c2ccncc2)o1 (stereo unspecified)
A. -3.08
